B1: library; a variant is named by its letters at N, in order (parent)
chain: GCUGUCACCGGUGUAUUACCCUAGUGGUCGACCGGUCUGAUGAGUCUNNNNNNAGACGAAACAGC

Variants of: B1
test_description: normalized RNA/DNA level with ligand (relative to sTRSVctl = 100) (log10 (% of sTRSVctl)); ligand: hypoxanthine (xanthine aptamer); higher = less ribozyme self-cleavage, higher mRNA level
experimental_context: ligand concentration (+) RNA-Seq: 5 mM, HEK293T, reporter: mCherry (pCS4076), ligand present: yes
parameter: normalized RNA/DNA level with ligand (log10)

IN: Can you share its normalized RNA/DNA level with ligand (log10)? I mean this variant: `ACCUGU`
OUT: 1.95

IN: Subsequent entry: `GUCGCU`
OUT: 2.04

IN: Subsequent entry: `GGAAAG`
OUT: 1.8

IN: Subsequent entry: `AAAGUA`
OUT: 1.9

IN: Subsequent entry: `AAAAGU`
OUT: 1.85

IN: Subsequent entry: `CUGAGU`
OUT: 1.94

IN: Subsequent entry: `GCGGGC`
OUT: 1.86

IN: Subsequent entry: `UGGUUC`
OUT: 1.96

IN: Subsequent entry: `AAGCUU`
OUT: 1.94

IN: Subsequent entry: `UUGCUC`
OUT: 2.06

IN: Subsequent entry: `AAUCUU`
OUT: 1.94

IN: Subsequent entry: `GUGGCC`
OUT: 1.98

IN: Subsequent entry: `GCUAAC`
OUT: 1.93

IN: Subsequent entry: `UUCCCA`
OUT: 1.92

IN: Subsequent entry: `GAUUCG`
OUT: 1.91

IN: Subsequent entry: `CAGAUA`
OUT: 1.88

IN: Subsequent entry: `CCACAA`
OUT: 1.97

IN: Subsequent entry: `GCAAUU`
OUT: 1.95

IN: Subsequent entry: `AUGGCU`
OUT: 1.89

IN: Subsequent entry: `GUCGCC`
OUT: 1.9

IN: Subsequent entry: `CCCGUG`
OUT: 1.97

IN: Subsequent entry: `GAUUUU`
OUT: 1.95

IN: Subsequent entry: `CAAACG`
OUT: 1.91

IN: Subsequent entry: `CUUGCA`
OUT: 2.01

IN: Subsequent entry: `GUGCAG`
OUT: 1.74

IN: Subsequent entry: `GUGCCA`
OUT: 1.93

IN: Subsequent entry: `GCUGAG`
OUT: 1.85

IN: Subsequent entry: `UUAGUA`
OUT: 1.94

IN: Subsequent entry: `UUUCAC`
OUT: 1.99

IN: Subsequent entry: `GUUUCU`
OUT: 2

IN: Subsequent entry: `UUGCUA`
OUT: 1.95

IN: Subsequent entry: `CAGACU`
OUT: 1.92

IN: Subsequent entry: `AAAUCG`
OUT: 1.86

IN: Subsequent entry: `AUGACG`
OUT: 1.81

IN: Subsequent entry: `AUCCGA`
OUT: 1.92

IN: Subsequent entry: `UCCAGC`
OUT: 2.03

IN: Subsequent entry: `ACAAUA`
OUT: 1.92

IN: Subsequent entry: `UACGUA`
OUT: 1.88

IN: Subsequent entry: `GCCGGC`
OUT: 1.96

IN: Subsequent entry: `GAAGUG`
OUT: 1.8

IN: Subsequent entry: `UUAUAG`
OUT: 1.89

IN: Subsequent entry: `CGGUCA`
OUT: 2.01

IN: Subsequent entry: `ACUUUA`
OUT: 1.9

IN: Subsequent entry: `AAUACU`
OUT: 1.89

IN: Subsequent entry: `ACAGUG`
OUT: 1.85

IN: Subsequent entry: `UGUAGA`
OUT: 1.93

IN: Subsequent entry: `CUCUCU`
OUT: 1.89

IN: Subsequent entry: `AUGCGU`
OUT: 1.94

IN: Subsequent entry: `AUUAUC`
OUT: 2.02

IN: Subsequent entry: `CAGGUG`
OUT: 1.9

IN: Subsequent entry: `UUGCUG`
OUT: 2.01

IN: Subsequent entry: `UCCUCC`
OUT: 1.99

IN: Subsequent entry: `GCUUCA`
OUT: 1.97

IN: Subsequent entry: `UAUACU`
OUT: 1.93

IN: Subsequent entry: `AACUCG`
OUT: 1.92

IN: Subsequent entry: `UGACAA`
OUT: 1.92

meta.source: the supplement of paper PMC6757056
